growth listing for selected compounds.
system: MDA-MB-435 melanoma; test: NCI-60 one-dose screen, 48 h (100 = growth as untreated, 0 = no growth, -100 = all killed); details: 10 µM unless noted
Compounds without any hit were thinned out: in the full panel of roughly 83,000, 20% have a hit.
Reply with just the number (in %).

INSERT INTO assay_data (compound, result_number) VALUES
  ('C[C@]12CCC(=O)CC1CC[C@@H]1C2CC[C@@]2(C)C1CC[C@@H]2OC(=O)CC[Se][Se]CCC(=O)O[C@H]1CCC2[C@@H]3CCC4CC(=O)CC[C@]4(C)C3CC[C@@]21C (some centres undefined)', 88.5),
  ('NC(Cc1ccc(O)cc1)C(=O)N/N=C/c1ccc(N(CCCl)CCCl)cc1 (centres undefined)', 84.7),
  ('C/C(=N/OC(=O)N(C)C)c1ccc(Cl)cc1Cl', 96);

We now examine a further compound.
// query Sample "CC1(C)CC2(CC(C)(C)c3cc(O)c(O)cc32)c2cc(O)c(O)cc21" — what was its growth?
// result 84.8

----------
tested on: HL-60(TB) leukemia; assay: NCI-60 one-dose screen, 48 h (100 = growth as untreated, 0 = no growth, -100 = all killed); conditions: 10 µM unless noted
About 83,000 compounds went through this panel and 20% of them were active in at least one assay; those are over-represented in the sample as a whole.
Answer NO if growth is under 50%, and YES if it is 50% or more.

# count of solved cases: 10
INSERT INTO assay_data (molecule, group_label) VALUES
  ('c1ccc(CSc2nnc3c4c5c(sc4nc(-c4cccnc4)n23)CCCCCC5)cc1', 'NO'),
  ('COc1cc(Nc2ncc(F)c(Nc3ccc4c(n3)NC(=O)C(C)(C)O4)n2)cc(OC)c1OC', 'YES'),
  ('O=c1oc2ccc(Br)cc2c(=O)n1-c1ccc(F)cc1F', 'NO'),
  ('C=C1C(=O)O[C@H]2[C@H]1CC/C(COC(=O)c1ccc(Br)cc1)=C\CC[C@@]1(C)O[C@@H]21', 'NO'),
  ('CCN(CC)S(=O)(=O)c1ccc(NC(=O)CSc2nnc(C)n2-c2ccccc2)cc1', 'YES'),
  ('O=C(/C=C/c1ccc(C(F)(F)F)cc1)c1ccc(Nc2nc(NCCO)nc(NCCO)n2)cc1', 'YES'),
  ('C/C(=N/O)c1ccc(NC(=O)Cn2nc(-c3ccc(Cl)cc3)nc2N)cc1', 'YES'),
  ('N=c1ccn2c(n1)O[C@@H]1[C@@H](O)[C@H](CO)O[C@@H]12', 'YES'),
  ('N#Cc1c(-c2ccccc2)c(C#N)c2c(C#N)c(N)nn2c1N', 'NO'),
  ('O=C1Nc2c(ccc(Cl)c2Cl)/C1=C/c1ccc(O)cc1', 'YES');

// query I'd appreciate it if you could say whether "Nc1n[nH]c(=S)n1-c1ccc(Cl)cc1" has growth at least equal to 50%.
// result YES

// query I'd appreciate it if you could say whether CC(=O)OCC(=O)C1(O)C(C)CC2C3C=C(C)C4=Cc5c(cnn5-c5ccccc5)CC4(C)C3C(O)CC21C (centres undefined) has growth at least equal to 50%.
// result NO

----------
system: 786-0 renal; assay: NCI-60 one-dose screen, 48 h; conditions: 10 µM unless noted
About 83,000 compounds went through this panel and 20% of them were active in at least one assay; those are over-represented in the sample as a whole. Active and inactive are the calls of the source. How the source made its calls: active means growth percent below 10; inactive means the rest.
Answer with one of the outcomes given here: YES = active, NO = inactive

# count of solved cases: 5
INSERT INTO assay_data (compound, group_label) VALUES
  ('C=CC(=O)NC(O)C(Cl)(Cl)Cl (stereo unspecified)', 'NO'),
  ('CC1(C)N=C(N)N=C(N)N1c1cccc(C(=O)Nc2cccc(S(=O)(=O)F)c2)c1', 'NO'),
  ('COC(=O)C1CC2c3ccccc3C1c1ccccc12 (stereo unspecified)', 'NO'),
  ('CCOc1ccc(C(O)CN(C)Cc2ccccc2)cc1Cl (stereo unspecified)', 'NO'),
  ('Nc1ncnc2c1c(C(=O)NO)cn2C1OC(CO)C(O)C1O (stereo unspecified)', 'YES');

// query # outcome recorded in this test, key = "CNC(=O)Oc1ccccc1-c1ccccc1"
// result NO

// query # outcome recorded in this test, key = O=C1NC(=O)C(CN2C(=O)C3(c4ccccc42)[C@H](Cl)C(=O)N3c2ccccc2)C(=O)N1 (stereo partly specified)
// result NO

// query # outcome recorded in this test, key = "CC1(C)N=C(N)N=C(N)N1c1ccc(CCCCc2ccc(S(=O)(=O)F)cc2)c(Cl)c1"
// result NO

----------
test system: U251 CNS; test: NCI-60 one-dose screen, 48 h (100 = growth as untreated, 0 = no growth, -100 = all killed); settings: 10 µM unless noted
About 83,000 compounds went through this panel and 20% of them were active in at least one assay; those are over-represented in the sample as a whole. Calls of active or inactive are those of the source. Rule for the calls: active = growth percent below 10; inactive = the rest.
growth listing for selected compounds.

INSERT INTO results (compound, result) VALUES
  ('CCC1CN1P(=O)(OCCOC)N1CC1CC (configuration not stated)', '102% (inactive)'),
  ('CC(C)[C@]12O[C@H]1[C@@H]1O[C@]13[C@]1(O[C@H]1C[C@H]1C4=C(CC[C@@]13C)C(=O)OC4)[C@@H]2OC(=O)OC(C)(C)C', '15.5% (inactive)'),
  ('CCOc1cc(/C=N\Nc2nnc(C)n2N)c(C)cc1N(CCCl)CCCl', '14.4% (inactive)'),
  ('COC(=O)C(=[N+]=[N-])C(=O)OC', '104% (inactive)'),
  ('CC1(C)N=C(N)N=C(N)N1c1cccc(C(=O)Nc2cccc(S(=O)(=O)F)c2)c1', '99.8% (inactive)');

// query // lookup growth | system=U251 CNS | key= C#CC1(O)CCC2(C)C(CCC3C4CCC(=O)C4(C)CCC32)C1 (configuration not stated)
// result 93.9% (inactive)

// query // lookup growth | system=U251 CNS | key= "CNC(=O)Oc1cc(C(C)C)ccc1Sc1ccc(C(C)C)cc1OC(=O)NC"
// result 46.2% (inactive)

// query // lookup growth | system=U251 CNS | key= "COc1cc(N(CCCl)CCCl)ccc1C=Nc1ccccc1C(=O)O"
// result 95.8% (inactive)

// query // lookup growth | system=U251 CNS | key= O=CC(Br)C(Br)c1ccccc1 (configuration not stated)
// result 102% (inactive)

// query // lookup growth | system=U251 CNS | key= CC(=O)O[C@H]1CCC2C3CCC4=C/C(=N/O)CCC4(C)C3CCC21C (some centres not stated)
// result 83.3% (inactive)

// query // lookup growth | system=U251 CNS | key= "CC(=O)Nc1ccc(C=C2C(=O)NC(=O)NC2=O)cc1"
// result 103% (inactive)

// query // lookup growth | system=U251 CNS | key= OC1(c2ccccc2F)c2ccccc2C2=NCCN21 (configuration not stated)
// result 104% (inactive)

// query // lookup growth | system=U251 CNS | key= "C/C(=C\c1cc(C(F)(F)F)n(-c2ccc(N)cc2)n1)[C@@H]1C[C@@H]2O[C@]2(C)CCC[C@H](C)[C@H](O)[C@@H](C)C(=O)C(C)(C)[C@@H](O)CC(=O)O1"
// result 3.19% (active)

----------
system: SNB-19 CNS; assay: NCI-60 one-dose screen, 48 h (100 = growth as untreated, 0 = no growth, -100 = all killed); settings: 10 µM unless noted
Compounds without any hit were thinned out: in the full panel of roughly 83,000, 20% have a hit.
growth listing for selected compounds.
Reply with just the number (in %).

Consider the reported growth for these compounds:
INSERT INTO results (compound, target_under_test, measured_attribute, unit_name, result_number) VALUES
  ('COc1cc(N(CCCl)CCCl)ccc1C=Nc1ccccc1C(=O)O', 'SNB-19 CNS', 'growth', '%', 97.2),
  ('CC12CC[C@H](O)C=C1/C(=N/O)CC1C2CCC2(C)C1CC[C@@H]2O (some centres undefined)', 'SNB-19 CNS', 'growth', '%', 104),
  ('C/C(=C\c1cc(C(F)(F)F)n(-c2ccc(N)cc2)n1)[C@@H]1C[C@@H]2O[C@]2(C)CCC[C@H](C)[C@H](O)[C@@H](C)C(=O)C(C)(C)[C@@H](O)CC(=O)O1', 'SNB-19 CNS', 'growth', '%', 21.1),
  ('Cc1cccc(N(C)c2cccc3c2C(=O)[Se]C3)c1C', 'SNB-19 CNS', 'growth', '%', 58.8),
  ('N#CC1c2ccccc2C=CN1C(=O)c1ccc(N(CCCl)CCCl)cc1 (centres undefined)', 'SNB-19 CNS', 'growth', '%', 82.4),
  ('O=C(CI)Nc1ccc(Br)cc1', 'SNB-19 CNS', 'growth', '%', 92.1);

// query // lookup growth | system=SNB-19 CNS | key= "Oc1ccc(O)c2c1C1(Cl)C(Cl)=C(Cl)C2(Cl)C1(Cl)Cl"
// result 64.9

// query // lookup growth | system=SNB-19 CNS | key= "CC1=C(SCCC(=O)OCC(=O)NCCC[Te]c2ccccc2)C(=O)c2ccccc2C1=O"
// result 9.54

// query // lookup growth | system=SNB-19 CNS | key= CCCCCCCC(=O)OCC/C=C/C1OC1C1OC(=O)/C=C\C=C\c2nc(oc2C)/C=C(/C)CCC2OC2C1OC(=O)NC(C)=O (centres undefined)
// result -56.8

// query // lookup growth | system=SNB-19 CNS | key= ClCCN(CCCl)C(c1ccccc1)c1ccc(Cl)cc1 (centres undefined)
// result 81.6

// query // lookup growth | system=SNB-19 CNS | key= "CC(=O)O[C@H]1CC[C@H]2[C@@H]3CC[C@H]4CC=C(C)C[C@]4(C)[C@H]3CC[C@]12C"
// result 101

// query // lookup growth | system=SNB-19 CNS | key= "O=C1NC(=O)C(Cc2ccccc2)(Cc2ccccc2)C(=O)N1"
// result 102

// query // lookup growth | system=SNB-19 CNS | key= ClCCN(CCCl)c1nc(Cl)c(C2CC(c3ccc(Cl)cc3)=NN2c2cc(Cl)cc(Cl)c2)s1 (centres undefined)
// result 88.1
